- measured target: 17β-HSD10 (Homo sapiens, UniProt Q99714)
- Construct: Histev (histidine tag with TEV site) (N, cleaved yes); made in house; host or cells: E. coli BL21-CodonPlus
- Sequence (Q99714 1-261): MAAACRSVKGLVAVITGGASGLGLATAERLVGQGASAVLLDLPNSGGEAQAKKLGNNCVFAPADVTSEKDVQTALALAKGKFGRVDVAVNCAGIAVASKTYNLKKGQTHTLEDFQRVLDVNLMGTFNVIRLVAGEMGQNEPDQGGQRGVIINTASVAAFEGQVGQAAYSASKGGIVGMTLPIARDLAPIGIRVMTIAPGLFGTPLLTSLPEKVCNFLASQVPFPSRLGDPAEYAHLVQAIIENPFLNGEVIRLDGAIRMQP
- test description: 17β-HSD10 (ABAD) enzyme inhibition assay, NADH oxidation read at 340 nm (primary screen and dose response)
- Format: biochemical
- study conditions: recombinant 17βHSD10 enzyme assay
endpoint: Max. Effect (%)

A. Cc1ccc(C(=O)N(CC(C)C)c2nccc(N(C)Cc3cnc[nH]3)n2)cc1
B. C#CCN(C)c1cccc(N(CC(C)C)C(=O)c2ccccc2F)c1
Please indicate which has the smaller reported Max. Effect (%): A , or B . Let me know the label of the one you choose.
A

* * *

- measured target: 17β-HSD10 (Homo sapiens)
- Construct: Histev (histidine tag with TEV site) (N, cleaved yes); made in house; host or cells: E. coli BL21-CodonPlus
- test description: 17β-HSD10 (ABAD) enzyme inhibition assay, NADH oxidation read at 340 nm (primary screen and dose response)
- Assay type: biochemical
- study conditions: recombinant 17βHSD10 enzyme assay
endpoint: Max. Effect (%)

[
  {
    "molecule": "Cc1ccsc1C(=O)N1CCC[C@H]1c1ccccc1-c1ccc(OC(F)(F)F)cc1",
    "Max. Effect (%)": 95
  },
  {
    "molecule": "Cn1cc(-c2ccccc2[C@@H]2CCCN2C(=O)c2sccc2Cl)cn1 (racemic)",
    "Max. Effect (%)": 98
  },
  {
    "molecule": "O=C(c1sccc1Cl)N1CCC[C@H]1c1ccccc1-c1cccc(O)c1 (single isomer, unassigned) [ESC1002754]",
    "Max. Effect (%)": 20
  },
  {
    "molecule": "Cc1ccsc1C(=O)N1CCC[C@H]1c1ccccc1-c1cccc(C)c1C",
    "Max. Effect (%)": 99
  },
  {
    "molecule": "CC(C)CN(C(=O)c1ccccc1F)c1cccc(N(C)Cc2c[nH]cn2)n1",
    "Max. Effect (%)": 77
  }
]

a. COc1cccc(-c2ccccc2[C@@H]2CCCN2C(=O)c2cn[nH]c2)c1 (racemic)
b. CN(C)CCN(C(=O)c1ccccc1F)c1cccc(N(C)Cc2c[nH]cn2)c1
c. CC(C)CN(C(=O)c1ccncn1)c1cccc(N(C)Cc2c[nH]cn2)c1
# sort list by recorded Max. Effect (%), greatest to least Output the labels ranked as instructed.
a, c, b

* * *

Reported values of EC50 for individual entries
- measured target: 17β-HSD10 (Homo sapiens)
- Construct: Histev (histidine tag with TEV site) (N, cleaved yes)
- test description: 17β-HSD10 (ABAD) enzyme inhibition assay, NADH oxidation read at 340 nm (primary screen and dose response)
- study conditions: recombinant 17βHSD10 enzyme assay

[
  {
    "compound": "CC(C)CN(C(=O)c1ccccc1F)c1cccc(N(C)Cc2nc[nH]n2)c1",
    "endpoint": "EC50",
    "test result": "2.69 µM"
  },
  {
    "compound": "CC(C)CN(C(=O)c1cnccn1)c1cccc(N(C)Cc2c[nH]cn2)c1",
    "endpoint": "EC50",
    "test result": "> 20 µM"
  },
  {
    "compound": "COc1cccc(-c2ccccc2[C@@H]2CCCN2C(=O)C(C)(C)C)c1 (racemic)",
    "endpoint": "EC50",
    "test result": "> 20 µM"
  }
]

May I ask what EC50 has been recorded for CC(C)CN(C(=O)c1ccccc1S(C)(=O)=O)c1cccc(N(C)Cc2c[nH]cn2)c1 ?
6.92 µM

May I ask what EC50 has been recorded for Cc1ccsc1C(=O)N1CCC[C@H]1c1ccccc1-c1cccc(Cl)c1 (single isomer, unassigned) [ESC1002769] ?
0.191 µM

May I ask what EC50 has been recorded for O=C(c1[nH]ncc1Cl)N1CCC[C@H]1c1ccccn1 ?
> 20 µM

May I ask what EC50 has been recorded for CCN(C(=O)c1cccc(F)c1)c1cccc(N(C)Cc2cnc[nH]2)c1 ?
> 20 µM

May I ask what EC50 has been recorded for COc1cccc(-c2ccccc2[C@H]2CCCN2C(=O)Cc2ccccc2)c1 ?
> 20 µM

* * *

- measured target: 17β-HSD10 (Homo sapiens, UniProt Q99714)
- Construct: Histev (histidine tag with TEV site) (N, cleaved yes); made in house; host or cells: E. coli BL21-CodonPlus
- test description: 17β-HSD10 (ABAD) enzyme inhibition assay, NADH oxidation read at 340 nm (primary screen and dose response)
- Format: biochemical
- study conditions: recombinant 17βHSD10 enzyme assay, curve fit
endpoint: Hill Slope

Sample records with Hill Slope:
[
  {
    "compound": "Cn1cc(-c2ccccc2[C@@H]2CCCN2C(=O)c2sccc2Cl)cn1 (racemic)",
    "Hill Slope": 1
  },
  {
    "compound": "CCc1ccc(C(=O)N(CC(C)C)c2cccc(N(C)Cc3c[nH]cn3)c2)cc1",
    "Hill Slope": 1.2
  },
  {
    "compound": "COc1cc(-c2ccccc2[C@@H]2CCCN2C(=O)c2sccc2Cl)ccn1 (racemic)",
    "Hill Slope": 1
  }
]

P. Cc1ccsc1C(=O)N1CCC[C@@H]1c1ccccc1-c1cnn(CCO)c1
Q. CC(C)CN(C(=O)c1c(F)cccc1F)c1cccc(N(C)Cc2c[nH]cn2)c1
Given P and Q , report the one with the higher recorded Hill Slope. Let me know the label of the one you choose.
Q
(Q: 1.2, P: 0.79)

* * *

- measured target: 17β-HSD10 (Homo sapiens)
- Construct: Histev (histidine tag with TEV site) (N, cleaved yes)
- test description: 17β-HSD10 (ABAD) enzyme inhibition assay, NADH oxidation read at 340 nm (primary screen and dose response)
- study conditions: recombinant 17βHSD10 enzyme assay
pEC50: −log10 of the molar value.
endpoint: pEC50

P. O=C(c1sccc1Cl)N1CCC[C@H]1c1ccccc1-c1cccc2[nH]ncc12 (racemic) [ESC1002702]
Q. Cc1ncc(CN(C)c2cccc(N(CC(C)C)C(=O)c3ccccc3F)c2)[nH]1 [ESC1002203]
R. COc1cccc(-c2ccccc2[C@@H]2CCCN2C(=O)c2ncc[nH]2)c1 (racemic) [ESC1002600]
In a descending ranking, list each entry from above by its pEC50, from the largest value down to the smallest. Output the labels ranked as instructed.
Q, P, R

I. Cc1ccc(C(=O)N(CC(C)C)c2cccc(N(C)Cc3c[nH]cn3)c2)c(F)c1 [ESC1002575]
II. CC(C)CN(C(=O)c1ccccc1Cl)c1cccc(N(C)Cc2c[nH]cn2)c1 [ESC1002457]
III. Cc1ccc(C(=O)N(CC(C)C)c2cccc(N(C)Cc3c[nH]cn3)c2)c(C)c1 [ESC1002492]
# sort list by recorded pEC50, greatest to least Output the labels ranked as instructed.
I, II, III
(I: 6.57, II: 6.35, III: 6.06)

P. Cc1ccsc1C(=O)N1CCC[C@@H]1c1ccccc1-c1cnn(CCO)c1 [ESC1002463]
Q. COc1cccc(-c2ccccc2[C@H]2CCCN2C(=O)c2sccc2F)c1 [ESC1002431]
Given P and Q , report the one with the higher recorded pEC50. Let me know the label of the one you choose.
Q

* * *

- measured target: 17β-HSD10 (Homo sapiens, UniProt Q99714)
- Construct: Histev (histidine tag with TEV site) (N, cleaved yes); made in house; host or cells: E. coli BL21-CodonPlus
- Sequence (Q99714 1-261): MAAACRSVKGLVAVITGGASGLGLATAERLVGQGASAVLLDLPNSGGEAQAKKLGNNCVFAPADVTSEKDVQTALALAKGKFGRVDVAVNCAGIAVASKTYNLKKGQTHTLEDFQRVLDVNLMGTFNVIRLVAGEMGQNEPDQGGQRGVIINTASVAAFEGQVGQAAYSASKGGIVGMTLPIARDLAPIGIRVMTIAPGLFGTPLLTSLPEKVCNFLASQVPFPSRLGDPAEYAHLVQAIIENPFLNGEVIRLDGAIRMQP
- test description: 17β-HSD10 (ABAD) enzyme inhibition assay, NADH oxidation read at 340 nm (primary screen and dose response)
- Assay type: biochemical
- study conditions: recombinant 17βHSD10 enzyme assay, curve fit
- Experimental: Cell pellets of E. coli BL21-CodonPlus cells containing Histev-17β-HSD10 protein were re-suspended for 30 min, 4° C., in lysis buffer (20 mM NaH2PO4, 30 mM imidazole, 500 mM NaCl, 10% (v/v) glycerol, pH 7.5) with the addition of complete ethylenediaminetetraacetic acid (EDTA)-free protease inhibitor tablets (Roche), lysozyme (1 mg/mL), deoxyribonuclease (DNase) (20 μg/mL) and Triton X-100 (0.1% (v/v)). […]
endpoint: Min. Fit

Sample records with Min. Fit:
[
  {
    "compound": "CC(C)CN(C(=O)c1ccccc1C(F)(F)F)c1cccc(N(C)Cc2c[nH]cn2)c1",
    "test result": "−8"
  },
  {
    "compound": "Cc1ccc(C(=O)N(CC(C)C)c2cccc(N(C)Cc3c[nH]cn3)c2)c(C)c1",
    "test result": "−10"
  },
  {
    "compound": "COc1ccc(-c2ccc(-c3cn[nH]c3)s2)c(OC)c1OC",
    "test result": 2
  }
]

I. O=C(c1sccc1Cl)N1CCC[C@H]1c1ccccc1-c1cc(O)cc(F)c1 (single isomer, unassigned) [ESC1002801]
II. CC(C)CN(C(=O)c1ccc(C(F)(F)F)cc1F)c1cccc(N(C)Cc2c[nH]cn2)c1
III. CCCCN(C(=O)c1ccccc1F)c1cccc(N(C)Cc2c[nH]cn2)c1
Rank the items in ascending order with respect to Min. Fit. Output the labels ranked as instructed.
II, I, III

A. O=C(c1sccc1Cl)N1CCC[C@H]1c1ccccc1-c1cc(O)ccc1F (single isomer, unassigned) [ESC1002843]
B. Cc1ccsc1C(=O)N1CCC[C@@H]1c1ccccc1-c1cnn(C)c1
C. Cc1ccsc1C(=O)N1CCC[C@H]1c1ccccc1-c1ccc(OC(F)(F)F)cc1
D. O=C(c1sccc1Cl)N1CCC[C@H]1c1ccccc1-c1ccc(O)cc1 (racemic)
# sort list by recorded Min. Fit, greatest to least Output the labels ranked as instructed.
B, D, C, A

A. COc1cccc(-c2ccccc2[C@H]2CCCN2C(=O)c2scnc2C)c1
B. CCc1ccc(C(=O)N(CC(C)C)c2cccc(N(C)Cc3c[nH]cn3)c2)cc1
C. O=C(c1sccc1Cl)N1CCC[C@H]1c1ccccc1-c1ccc(F)c(O)c1 (single isomer, unassigned) [ESC1002838]
D. Cc1ccsc1C(=O)N1CCC[C@H]1c1ccccc1-c1ccc(Cl)c(C(F)(F)F)c1
E. Cc1ccsc1C(=O)N1CCC[C@H]1c1ccccc1-c1ccc(S(C)(=O)=O)cc1
# sort list by recorded Min. Fit, greatest to least Output the labels ranked as instructed.
C, A, E, B, D

a. Cc1ccsc1C(=O)N1CCC[C@@H]1c1ccccc1-c1cnn(C2CCNCC2)c1
b. Cc1ccsc1C(=O)N1CCC[C@@H]1c1ccccc1-c1cnn(CCO)c1
c. CC(C)CN(C(=O)c1ccccc1F)c1cccc(N(C)Cc2ccn[nH]2)c1 [ESC1002205]
d. Cc1ccsc1C(=O)N(CC(C)C)c1cccc(N(C)Cc2c[nH]cn2)c1
# sort list by recorded Min. Fit, greatest to least Output the labels ranked as instructed.
d, c, a, b
(d: 4, c: 0, a: −1, b: −6)

P. CC(C)CN(C(=O)c1ccccc1F)c1cccc(N(C)Cc2cccnc2)c1
Q. COc1cc(OC)cc(-c2ccccc2[C@@H]2CCCN2C(=O)c2sccc2Cl)c1 (racemic)
R. COc1cc(-c2ccccc2[C@@H]2CCCN2C(=O)c2sccc2Cl)ccc1C (racemic)
# sort list by recorded Min. Fit, greatest to least Output the labels ranked as instructed.
P, Q, R
(P: 0, Q: −1, R: −2)

1. O=C(c1sccc1Cl)N1CCC[C@H]1c1ccccc1-c1ccc2[nH]ncc2c1 (racemic)
2. COCCN(C(=O)c1ccccc1F)c1cccc(N(C)Cc2c[nH]cn2)c1
3. Cn1cc(-c2ccccc2[C@@H]2CCCN2C(=O)c2sccc2Cl)cn1 (racemic)
# sort list by recorded Min. Fit, greatest to least Output the labels ranked as instructed.
1, 2, 3

P. O=C(c1sccc1Cl)N1CCC[C@H]1c1ccccc1-c1ccc(F)c(O)c1 (racemic) [ESC1002775]
Q. O=C(c1sccc1Cl)N1CCC[C@H]1c1ccccc1-c1ccc(F)c(O)c1 (single isomer, unassigned) [ESC1002839]
Given P and Q , report the one with the higher recorded Min. Fit. Let me know the label of the one you choose.
P
(P: 0, Q: −4)

Value source: patent US20260132123A1
